Target: sterol 14-reductase (Rattus norvegicus, UniProt A0ACM8Q6X4)
Construct: microsome which was used as an enzyme source of sterol 14-reductase; from tissue; host or cells: liver microsomes of male Sprague-Dawley rats fed lovastatin and cholestyramine
Assay: Inhibition of sterol 14-reductase in rat liver microsomes
Assay type: biochemical
Conditions: rat liver microsome, anaerobic, 10 min at 37° C.; read-out: level of compound at which 50% of inhibition of the enzymatic activity was observed

- Input smiles: "CCc1c2[n+](cc3c(OCc4ccc(C(C)(C)C)cc4)c(OC)ccc13)CCc1cc(OC)c(OC)cc1-2"
  IC50: "100 to 300 nM"

###

Target: sterol 14-reductase (Rattus norvegicus)
Construct: microsome which was used as an enzyme source of sterol 14-reductase; from tissue; host or cells: liver microsomes of male Sprague-Dawley rats fed lovastatin and cholestyramine
Sequence (A0ACM8Q6X4 1-418): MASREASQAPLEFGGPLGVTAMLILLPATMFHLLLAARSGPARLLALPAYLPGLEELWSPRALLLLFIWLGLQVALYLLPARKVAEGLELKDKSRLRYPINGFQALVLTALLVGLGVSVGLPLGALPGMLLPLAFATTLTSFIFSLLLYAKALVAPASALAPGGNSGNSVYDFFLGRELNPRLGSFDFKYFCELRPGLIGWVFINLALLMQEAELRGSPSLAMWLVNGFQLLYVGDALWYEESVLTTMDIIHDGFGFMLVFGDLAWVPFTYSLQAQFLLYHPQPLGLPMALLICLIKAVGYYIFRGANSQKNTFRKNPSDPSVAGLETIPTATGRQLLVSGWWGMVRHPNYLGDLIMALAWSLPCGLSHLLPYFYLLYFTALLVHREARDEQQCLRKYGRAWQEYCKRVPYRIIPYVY
Experiment: Inhibition of sterol 14-reductase in rat liver microsomes
Format: biochemical
Settings: microsomes; read-out: Enzyme Activity (relative in vitro activity for sterol 14-reductase, IC50 class)
pIC50: −log10 of the molar value.
Measurement label: pIC50

- Input smiles: "CCc1c2[n+](cc3c(OCc4ccc(C)c([N+](=O)[O-])c4)c(OC)ccc13)CCc1cc(OC)c(OC)cc1-2"
  Measurement label: "pIC50"
  Result: "> 6.00"
- Input smiles: "CCc1c2[n+](cc3c(OCc4ccccc4C(F)(F)F)c(OC)ccc13)CCc1cc(OC)c(OC)cc1-2"
  Measurement label: "pIC50"
  Result: "< 4.00"
- Input smiles: "CCc1c2[n+](cc3c(OCc4ccc(C)c([N+](=O)[O-])c4)c(OC)ccc13)CCc1cc3c(cc1-2)OCO3"
  Measurement label: "pIC50"
  Result: "4.00 to 5.00"
